Reference for the values: patent US20210145976A1

molecular target: T1, recombinant biotinylated CD71 extracellular domain (Sino Biologics) with an N-terminal 6His tag (human, UniProt P02786 89-760, biotinylated (sites not given)); assay: screening ELISA, ratio
T1 construct: extracellular domain; also called hCD71; huCD71
T1 sequence (P02786 other isoform, or with tags, fused parts or gaps): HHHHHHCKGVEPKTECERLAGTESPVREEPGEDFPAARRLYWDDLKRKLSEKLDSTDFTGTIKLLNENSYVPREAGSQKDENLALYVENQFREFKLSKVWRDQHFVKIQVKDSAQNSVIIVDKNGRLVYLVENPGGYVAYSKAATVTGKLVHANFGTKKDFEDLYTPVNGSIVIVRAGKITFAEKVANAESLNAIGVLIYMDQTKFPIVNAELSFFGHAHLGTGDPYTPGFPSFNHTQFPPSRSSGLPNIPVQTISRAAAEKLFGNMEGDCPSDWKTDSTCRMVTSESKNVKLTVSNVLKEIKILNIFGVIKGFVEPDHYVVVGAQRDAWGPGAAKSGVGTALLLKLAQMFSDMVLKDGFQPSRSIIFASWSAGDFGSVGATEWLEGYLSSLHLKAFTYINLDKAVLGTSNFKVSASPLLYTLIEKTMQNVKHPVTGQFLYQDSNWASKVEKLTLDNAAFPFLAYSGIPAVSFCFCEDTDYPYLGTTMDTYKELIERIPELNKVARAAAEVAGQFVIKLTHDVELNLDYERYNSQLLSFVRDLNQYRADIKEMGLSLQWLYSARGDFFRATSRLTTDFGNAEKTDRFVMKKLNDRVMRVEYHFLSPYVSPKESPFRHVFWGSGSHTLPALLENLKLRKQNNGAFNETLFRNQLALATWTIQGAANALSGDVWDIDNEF
reported-property: hCD71:HSA

binder="SEQ ID NO 245 (designed binder, FN3 domain) MLPAPKNLVVSRITEDSARLSWTAPDAAFDSFGIAYNEGDHYGEAIVLTVPGSERSYDLTGLKPGTEYSVWIEGVKGGNLSYPLSAIFTT" reported_property=hCD71:HSA value_observed=903

a = SEQ ID NO 285 (designed binder, FN3 domain) MLPAPKNLVVSRVTEDSARLSWTAPDAAFDSFLIPYAETSPSGEAIVLTVPGSERSYDLTGLKPGTEYSVLIHGVKGGDYSSPLSAIFTT
b = SEQ ID NO 195 (designed binder, FN3 domain) MLPAPKNLVVSRVTEDSARLSWTAPDAAFDSFPIEYDEIPFWGEAIVLTVPGSERSYDLTGLKPGTEYRVWIHGVKGGNSSWPLSAIFTT
c = SEQ ID NO 268 (designed binder, FN3 domain) MLPAPKNLVVSRVTEDSARLSWTAPDAAFDSFTIVYGEAGAFGEAIVLTVPGSERSYDLTGLKPGTEYDVLIEGVKGGNLSWPLSAIFTT
Query: Order the entries by their reported hCD71:HSA, beginning at the minimum. Answer by listing the labels in the requested order.
Result: b, c, a
(b: 28, c: 626, a: 1110)
